- tested.target: recombinant human c-Met residues 974-end (Homo sapiens)
- Construct: recombinant human c-Met residues 974-end; 6His; purchased Millipore
- assay.name: Inhibition of c-Met kinase (TR-FRET)
- Format: biochemical
- condition.description: 1.56 μM; read-out: Inhibitory rate on c-Met kinase
measure.name: inhibition at 1.56 µM (%)
Give bare numbers, in %.

State recorded inhibition at 1.56 µM for all listed compounds.
1. CC(C)=C1C/C=C(\C)CC/C=C(\C)CC1OC(=O)c1cccc(C)c1 (stereo not shown)
2. CC(C)=C1C/C=C(\C)CC/C=C(\C)CC1OC(=O)/C=C\c1ccccc1 (stereo not shown)
3. CC(C)=C1C/C=C(\C)CC/C=C(\C)CC1O (stereo not shown)
4. CC(C)=C1C/C=C(\C)CC/C=C(\C)CC1OC(=O)c1ccc(C(F)(F)F)cc1 (stereo not shown)

1. 59.6
2. 61.4
3. 55.2
4. 59

---

Exercise: state measured inhibition at 25 µM for each of the compounds provided.
- tested.target: recombinant human c-Met residues 974-end (Homo sapiens)
- Construct: recombinant human c-Met residues 974-end; 6His; purchased Millipore
- assay.name: Inhibition of c-Met kinase (TR-FRET)
- Format: biochemical
- condition.description: 25.00 μM; read-out: Inhibitory rate on c-Met kinase
Answers are plain numbers, in %.

Use the examples below as a reference point.
Return reported inhibition at 25 µM for target or system recombinant human c-Met residues 974-end (Homo sapiens), item CC(C)=C1C/C=C(\C)CC/C=C(\C)CC1=O [Compound 1, germacrone, reference compound] .
77.5

Return reported inhibition at 25 µM for target or system recombinant human c-Met residues 974-end (Homo sapiens), item CC(=O)OC1C/C(C)=C/CC/C(C)=C/CC1=C(C)C (stereo not shown) .
79.3

Return reported inhibition at 25 µM for target or system recombinant human c-Met residues 974-end (Homo sapiens), item CC(C)=C1C/C=C(\C)CC/C=C(\C)CC1OC(=O)c1ccc(C)cc1 (stereo not shown) .
81.2

Return reported inhibition at 25 µM for target or system recombinant human c-Met residues 974-end (Homo sapiens), item CC(C)=C1C/C=C(\C)CC/C=C(\C)CC1OC(=O)c1cccc(C)c1 (stereo not shown) .
78.9

Return reported inhibition at 25 µM for target or system recombinant human c-Met residues 974-end (Homo sapiens), item CC(C)=C1C/C=C(\C)CC/C=C(\C)CC1OC(=O)/C=C\c1ccccc1 (stereo not shown) .
80

Return reported inhibition at 25 µM for target or system recombinant human c-Met residues 974-end (Homo sapiens), item CC(C)=C1C/C=C(\C)CC/C=C(\C)CC1OC(=O)c1ccc(C(F)(F)F)cc1 (stereo not shown) .
80.6

More entries:
Return reported inhibition at 25 µM for target or system recombinant human c-Met residues 974-end (Homo sapiens), item CC(C)=C1C/C=C(\C)CC/C=C(\C)CC1O (stereo not shown) .
74.2

---

- tested.target: recombinant human c-Met residues 974-end (Homo sapiens)
- Construct: recombinant human c-Met residues 974-end; 6His; purchased Millipore
- assay.name: Inhibition of c-Met kinase (TR-FRET)
- Assay type: biochemical
- condition.description: 0.39 μM; read-out: Inhibitory rate on c-Met kinase
Class Condition met: inhibition at 0.39 µM at least 40%. Class Condition not met: inhibition at 0.39 µM below 40%.

Is reported inhibition at 0.39 µM greater than or equal to 40% here: CC(C)=C1C/C=C(\C)CC/C=C(\C)CC1OC(=O)c1cccc(C)c1 (stereo not shown)
Condition met

Is reported inhibition at 0.39 µM greater than or equal to 40% here: CC(C)=C1C/C=C(\C)CC/C=C(\C)CC1OC(=O)c1ccc(C)cc1 (stereo not shown)
Condition met

Is reported inhibition at 0.39 µM greater than or equal to 40% here: CC(C)=C1C/C=C(\C)CC/C=C(\C)CC1OC(=O)/C=C\c1ccccc1 (stereo not shown)
Condition met

Here's the next entry for you.
Is reported inhibition at 0.39 µM greater than or equal to 40% here: CC(C)=C1C/C=C(\C)CC/C=C(\C)CC1O (stereo not shown)
Condition not met

---

- Test system: HepG2 cells
- assay.name: MTT proliferation assay on HepG2 cells
- Assay type: cell-based
- condition.description: Homo sapiens, 48 h
- Experimental: MTT assay was then applied at 24 h, 48 h. […] However, all the compounds were active against Bel-7402, HepG2, A549 and HeLa cells to some extent. […] Before we began to design these compounds, we carefully studied these references. […] Proliferation of cells was evaluated by MTT assay. […] The absorbances at 590 nm of the dissolved solutions were detected using a SpectraMAX190 microplate reader (Molecular Devices, USA).
measure.name: IC50 (µM)
Give bare numbers, in µM.

Use the examples below as a reference point.
Please supply the value of reported IC50 for the item CC(C)=C1C/C=C(\C)CC/C=C(\C)CC1O (stereo not shown) [Compound 2]
162

Please supply the value of reported IC50 for the item CC(C)=C1C/C=C(\C)CC/C=C(\C)CC1OC(=O)c1ccc(C(F)(F)F)cc1 (stereo not shown) [Compound 3d]
78.9

State recorded IC50 for all listed molecules.
1. CC(C)=C1C/C=C(\C)CC/C=C(\C)CC1OC(=O)/C=C\c1ccccc1 (stereo not shown) [Compound 3e]
2. CC(=O)OC1C/C(C)=C/CC/C(C)=C/CC1=C(C)C (stereo not shown) [Compound 3a]
3. CC(C)=C1C/C=C(\C)CC/C=C(\C)CC1OC(=O)c1ccc(C)cc1 (stereo not shown) [Compound 3b]
4. CC(C)=C1C/C=C(\C)CC/C=C(\C)CC1OC(=O)c1cccc(C)c1 (stereo not shown) [Compound 3c]
5. CC(C)=C1C/C=C(\C)CC/C=C(\C)CC1=O [Compound 1, germacrone, reference compound]

1. 70
2. 152
3. 71.5
4. 67.8
5. 175

---

- tested.target: recombinant human c-Met residues 974-end (Homo sapiens, UniProt P08581)
- Construct: recombinant human c-Met residues 974-end; 6His; purchased Millipore
- Sequence (P08581 974-1390 limits assumed): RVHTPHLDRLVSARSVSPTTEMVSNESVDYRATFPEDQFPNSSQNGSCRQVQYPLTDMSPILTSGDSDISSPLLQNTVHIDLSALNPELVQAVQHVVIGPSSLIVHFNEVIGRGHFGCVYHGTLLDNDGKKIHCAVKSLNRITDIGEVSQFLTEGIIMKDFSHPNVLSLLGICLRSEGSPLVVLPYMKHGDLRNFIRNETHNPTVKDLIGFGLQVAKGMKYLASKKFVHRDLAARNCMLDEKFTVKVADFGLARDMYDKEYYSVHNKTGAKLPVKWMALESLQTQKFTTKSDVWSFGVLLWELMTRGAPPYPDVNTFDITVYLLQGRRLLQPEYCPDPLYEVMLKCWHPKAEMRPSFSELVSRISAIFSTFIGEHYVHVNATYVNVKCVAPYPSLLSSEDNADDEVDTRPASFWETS
- assay.name: Inhibition of c-Met kinase (TR-FRET)
- Type: biochemical
- condition.description: 100.00 μM; read-out: Inhibitory rate on c-Met kinase
Exercise: state measured inhibition at 100 µM for each of the compounds provided.
Numbers only, in %.

State recorded inhibition at 100 µM for all listed compounds.
1. CC(C)=C1C/C=C(\C)CC/C=C(\C)CC1OC(=O)c1ccc(C(F)(F)F)cc1 (stereo not shown)
2. CC(C)=C1C/C=C(\C)CC/C=C(\C)CC1=O [Compound 1, germacrone, reference compound]
3. CC(C)=C1C/C=C(\C)CC/C=C(\C)CC1OC(=O)c1cccc(C)c1 (stereo not shown)

87.7
88
87.4

State recorded inhibition at 100 µM for all listed compounds.
1. CC(C)=C1C/C=C(\C)CC/C=C(\C)CC1OC(=O)/C=C\c1ccccc1 (stereo not shown)
2. CC(C)=C1C/C=C(\C)CC/C=C(\C)CC1O (stereo not shown)
3. CC(C)=C1C/C=C(\C)CC/C=C(\C)CC1OC(=O)c1ccc(C)cc1 (stereo not shown)
4. CC(=O)OC1C/C(C)=C/CC/C(C)=C/CC1=C(C)C (stereo not shown)

88.4
81.2
88.8
86.9

---

- tested.target: recombinant human c-Met residues 974-end (Homo sapiens)
- Construct: recombinant human c-Met residues 974-end; 6His; purchased Millipore
- assay.name: Inhibition of c-Met kinase (TR-FRET)
- Type: biochemical
- condition.description: 3.12 μM; read-out: Inhibitory rate on c-Met kinase
Exercise: state measured inhibition at 3.12 µM for each of the compounds provided.
One number for each entry, in %.

Use the examples below as a reference point.
Please supply the value of reported inhibition at 3.12 µM for the item CC(C)=C1C/C=C(\C)CC/C=C(\C)CC1OC(=O)c1ccc(C)cc1 (stereo not shown)
67

Please supply the value of reported inhibition at 3.12 µM for the item CC(C)=C1C/C=C(\C)CC/C=C(\C)CC1OC(=O)/C=C\c1ccccc1 (stereo not shown)
67.5

Please supply the value of reported inhibition at 3.12 µM for the item CC(C)=C1C/C=C(\C)CC/C=C(\C)CC1OC(=O)c1ccc(C(F)(F)F)cc1 (stereo not shown)
64.2

Please supply the value of reported inhibition at 3.12 µM for the item CC(C)=C1C/C=C(\C)CC/C=C(\C)CC1=O [Compound 1, germacrone, reference compound]
65.4

Please supply the value of reported inhibition at 3.12 µM for the item CC(C)=C1C/C=C(\C)CC/C=C(\C)CC1OC(=O)c1cccc(C)c1 (stereo not shown)
64.5

Please supply the value of reported inhibition at 3.12 µM for the item CC(=O)OC1C/C(C)=C/CC/C(C)=C/CC1=C(C)C (stereo not shown)
65

Note: attention shifts to another entry.
Please supply the value of reported inhibition at 3.12 µM for the item CC(C)=C1C/C=C(\C)CC/C=C(\C)CC1O (stereo not shown)
59.9

These data points were gathered from paper PMC5362474.
